# System: Mycobacterium tuberculosis
# assay-details: Antimycobacterial activity against multidrug-resistant Mycobacterium tuberculosis assessed as mycobacterial growth inhibition
# Assay type: functional
Each entry below carries its recorded MIC50.
State just the number; it will be interpreted in mg/L.

Some molecules with known MIC50 results, for comparison:
- compound-string: "COc1nc2ccc(Br)cc2cc1[C@@H](c1ccccc1)[C@@](O)(CCN(C)C)c1cccc2ccccc12"
  target-of-assay: "Mycobacterium tuberculosis"
  measured-result: 0.032
- compound-string: "COc1nc(-c2ccc(Cl)cc2)ccc1[C@@H](c1ccccc1)[C@@](O)(CCN(C)C)c1cccc2ccccc12"
  target-of-assay: "Mycobacterium tuberculosis"
  measured-result: 0.111
- compound-string: "NNC(=O)c1ccncc1"
  target-of-assay: "Mycobacterium tuberculosis"
  measured-result: 4.21

Turning now to a further record.
Lookup: Fill blank: measured MIC50 of the molecule NC[C@H]1O[C@H](O[C@H]2[C@H](O)[C@@H](O[C@H]3O[C@H](CO)[C@@H](O)[C@H](N)[C@H]3O)[C@H](N)C[C@@H]2N)[C@H](O)[C@@H](O)[C@@H]1O is ____.
Found: 1.24
